# protocol_description: In vitro enzyme assay to detect hydrolysis of chlorophenol red-beta-D-[…] directly proportional to the number of Toxoplasma stably expressing beta-galactosidase
# Format: functional, organism-based, Toxoplasma gondii
# Parameters: scale not given: in the data most compounds retested in dose-response had high values
# particulars: 50 µM
The campaign covered roughly 85,000 compounds. About 440 (0.52%) showed an effect of 50% or more. Shown is part of a subset that was picked to be rich in strong results.

[
  {
    "molecule": "CCNC(=O)c1cc2ccc(OC)cc2[nH]1",
    "scale_unit": "%",
    "Percent Effect": -0.6946
  },
  {
    "molecule": "CCC=C(C)C(=O)NCC(C)N1CCN(CC)CC1 (stereo not drawn)",
    "scale_unit": "%",
    "Percent Effect": 11.7
  },
  {
    "molecule": "O=C(CN1CCN(CCO)CC1)Nc1ccc(Br)cn1",
    "scale_unit": "%",
    "Percent Effect": 2.183
  },
  {
    "molecule": "Fc1ccc(NCC2CCC3(CC2)OCCO3)nc1",
    "scale_unit": "%",
    "Percent Effect": 8.487
  },
  {
    "molecule": "COCC(NC(=O)CNc1ccccc1)C(C)C (stereo not drawn)",
    "scale_unit": "%",
    "Percent Effect": 18.12
  },
  {
    "molecule": "CC(C)(C)c1cc(NC(=O)CN2CCC(O)CC2)on1",
    "scale_unit": "%",
    "Percent Effect": -5.429
  },
  {
    "molecule": "COC(=O)c1cnc(F)cn1",
    "scale_unit": "%",
    "Percent Effect": 53.27
  },
  {
    "molecule": "Cc1ccc(CN(C)C(=O)CSc2nncn2C)o1",
    "scale_unit": "%",
    "Percent Effect": 6.979
  },
  {
    "molecule": "CC1Sc2ccc(C(=O)N(C)C)cc2NC1=O (stereo not drawn)",
    "scale_unit": "%",
    "Percent Effect": -6.489
  },
  {
    "molecule": "CCNC(=O)C1CN(C(=O)C(O)c2ccc(Br)cc2)C1 (stereo not drawn)",
    "scale_unit": "%",
    "Percent Effect": -1.346
  },
  {
    "molecule": "O=C1CNC2(CCCCC2)C(=O)N1",
    "scale_unit": "%",
    "Percent Effect": -1.267
  },
  {
    "molecule": "CN(C)S(=O)(=O)CCCN1CCC2(CCCNC2=O)C1 (stereo not drawn)",
    "scale_unit": "%",
    "Percent Effect": 25.69
  },
  {
    "molecule": "Cc1ccc(F)cc1C(=O)NC1CCCNC1 (stereo not drawn)",
    "scale_unit": "%",
    "Percent Effect": 83.09
  },
  {
    "molecule": "O=C(N[C@H]1CCCNC1)c1ccc(F)cc1F",
    "scale_unit": "%",
    "Percent Effect": -5.906
  },
  {
    "molecule": "NCCc1n[nH]c(=O)n1-c1ccc2c(c1)OCO2",
    "scale_unit": "%",
    "Percent Effect": -0.07643
  },
  {
    "molecule": "CC(C)C(=O)Nc1cccc(CN)c1",
    "scale_unit": "%",
    "Percent Effect": -3.402
  },
  {
    "molecule": "COCC(N)c1ccccc1 (stereo not drawn)",
    "scale_unit": "%",
    "Percent Effect": 3.787
  },
  {
    "molecule": "CCNC(=O)C1CCN(C(=O)Cc2cccc(O)c2)C1 (stereo not drawn)",
    "scale_unit": "%",
    "Percent Effect": -5.389
  },
  {
    "molecule": "O=C(Cc1ccccc1)NCc1ccncc1",
    "scale_unit": "%",
    "Percent Effect": 2.374
  },
  {
    "molecule": "Cc1ccc(F)cc1S(=O)(=O)N1C[C@H](C2CC2)[C@@H](N)C1",
    "scale_unit": "%",
    "Percent Effect": 98.86
  },
  {
    "molecule": "Cc1cc(F)ccc1S(=O)(=O)N1C[C@H](C2CC2)[C@@H](N)C1",
    "scale_unit": "%",
    "Percent Effect": 8.476
  },
  {
    "molecule": "NS(=O)(=O)CCNC(=O)c1ccc(-c2cccs2)s1",
    "scale_unit": "%",
    "Percent Effect": 1.485
  },
  {
    "molecule": "Cn1nccc1CCC(=O)NCCN1CCCC1",
    "scale_unit": "%",
    "Percent Effect": 10.39
  },
  {
    "molecule": "CCN(CCCN1CCCC1)C(=O)c1cc[nH]n1",
    "scale_unit": "%",
    "Percent Effect": -7.801
  },
  {
    "molecule": "CC(C)COCC1CCNCC1",
    "scale_unit": "%",
    "Percent Effect": 3.232
  },
  {
    "molecule": "CNc1cccnc1N(C)C",
    "scale_unit": "%",
    "Percent Effect": 57.74
  },
  {
    "molecule": "CN(C)Cc1cccc(C(=O)N[C@@H]2CCOC[C@H]2O)c1",
    "scale_unit": "%",
    "Percent Effect": -6.19
  },
  {
    "molecule": "CNC(=O)Cc1noc(CCc2cccc(F)c2)n1",
    "scale_unit": "%",
    "Percent Effect": -4.248
  },
  {
    "molecule": "Cc1cc(CN)nc(N2CCCC2)n1",
    "scale_unit": "%",
    "Percent Effect": -18.34
  },
  {
    "molecule": "CN(Cc1ccccn1)Cc1csnn1",
    "scale_unit": "%",
    "Percent Effect": 13.21
  },
  {
    "molecule": "NS(=O)(=O)c1ccc(Sc2ccc(F)cc2F)nc1",
    "scale_unit": "%",
    "Percent Effect": -8.713
  },
  {
    "molecule": "CCCS(=O)(=O)N1CCC(CC(=O)NC)CC1",
    "scale_unit": "%",
    "Percent Effect": -1.732
  },
  {
    "molecule": "CN(C)c1nc(CN)cs1",
    "scale_unit": "%",
    "Percent Effect": -3.708
  },
  {
    "molecule": "CC(C)N(C)S(=O)(=O)NCCCN(C)c1ccccc1",
    "scale_unit": "%",
    "Percent Effect": 0.05674
  },
  {
    "molecule": "COc1cccc2ccc(CN3CC[C@@H](O)C3)nc12",
    "scale_unit": "%",
    "Percent Effect": 11.26
  },
  {
    "molecule": "CCCn1ccc(NC(=O)NC(C)C)n1",
    "scale_unit": "%",
    "Percent Effect": -36
  },
  {
    "molecule": "O=C(NCc1n[nH]c(=O)[nH]1)C1COc2ccccc21 (stereo not drawn)",
    "scale_unit": "%",
    "Percent Effect": -1.703
  },
  {
    "molecule": "Cn1ccnc1SCC(=O)Nc1cccnc1",
    "scale_unit": "%",
    "Percent Effect": -23.51
  },
  {
    "molecule": "CC(=O)Nc1cn[nH]c1",
    "scale_unit": "%",
    "Percent Effect": -20.18
  },
  {
    "molecule": "CCCc1ccc(C(=O)N[C@@H]2CCOC[C@H]2O)cc1",
    "scale_unit": "%",
    "Percent Effect": 64
  },
  {
    "molecule": "Cn1cncc1C(N)CO (stereo not drawn)",
    "scale_unit": "%",
    "Percent Effect": -9.765
  },
  {
    "molecule": "CN(C)C(=O)c1ccc2ncnc(N3CCCC3)c2c1",
    "scale_unit": "%",
    "Percent Effect": -3.186
  },
  {
    "molecule": "COc1cccc(NC(=O)C(C)Sc2nnnn2C)c1 (stereo not drawn)",
    "scale_unit": "%",
    "Percent Effect": -3.512
  },
  {
    "molecule": "CCSc1cc(CN)ccn1",
    "scale_unit": "%",
    "Percent Effect": -10.09
  },
  {
    "molecule": "CCC(C(=O)Nc1ccc(C)cc1)N(C)C (stereo not drawn)",
    "scale_unit": "%",
    "Percent Effect": -1.57
  },
  {
    "molecule": "Cc1nn(C)c(C)c1NC(=O)N1CCSCC1",
    "scale_unit": "%",
    "Percent Effect": -12.54
  },
  {
    "molecule": "Cn1nc(C(=O)N2CCOCC2)c(Br)c1C(F)(F)F",
    "scale_unit": "%",
    "Percent Effect": 24.28
  },
  {
    "molecule": "CS(=O)(=O)NCC(=O)NCc1cnn2ccccc12",
    "scale_unit": "%",
    "Percent Effect": -11.78
  },
  {
    "molecule": "C[S+]([O-])c1nncn1Cc1cccc2cccnc12 (stereo not drawn)",
    "scale_unit": "%",
    "Percent Effect": -6.749
  },
  {
    "molecule": "CN(C)CC1CNCCO1 (stereo not drawn)",
    "scale_unit": "%",
    "Percent Effect": -14.23
  },
  {
    "molecule": "N#Cc1ccc(S(=O)(=O)N2CCCO2)c(Cl)c1",
    "scale_unit": "%",
    "Percent Effect": 6.897
  },
  {
    "molecule": "COC(=O)c1cnc(O)cn1",
    "scale_unit": "%",
    "Percent Effect": 0.4239
  },
  {
    "molecule": "CC(C)Sc1ccccc1NS(=O)(=O)N(C)C",
    "scale_unit": "%",
    "Percent Effect": 99.92
  },
  {
    "molecule": "CN(C)c1ncccc1N",
    "scale_unit": "%",
    "Percent Effect": 1.469
  },
  {
    "molecule": "NC(=O)c1cc(N2CCCC2)nc2ccccc12",
    "scale_unit": "%",
    "Percent Effect": 2.977
  },
  {
    "molecule": "NC1CCN(CC2CC2)CC1",
    "scale_unit": "%",
    "Percent Effect": 2.288
  },
  {
    "molecule": "O=C(NCC(F)(F)F)c1ccccc1NCCCO",
    "scale_unit": "%",
    "Percent Effect": 5.629
  },
  {
    "molecule": "CC(=O)NC1CCNC1 (stereo not drawn)",
    "scale_unit": "%",
    "Percent Effect": 26.97
  }
]
